Origin of measurements: ChEMBL document CHEMBL1147206

# Tested on: Human gammaherpesvirus 4
# ASSAY NOTES: TPA-induced EBV early antigen activation in Raji cells at 3.2 nmol relative to control
In this section, each of the compounds is paired with its reported EBV-EA activation.

{"columns": ["COMPOUND", "EBV-EA activation / %"],
 "data": [
  ["COc1cccc(O)c1C/C=C/c1ccccc1", 70.5],
  ["COc1c(C/C=C/c2ccccc2)ccc(O)c1O [HYDROXYOBUSTYRENE]", 71],
  ["COc1cc(/C=C/Cc2ccc(OC)c(O)c2OCC=C(C)C)ccc1O", 63.2],
  ["COc1ccc(C/C=C/c2ccccc2)c(O)c1OCC=C(C)C", 65.6],
  ["COc1cc(/C=C/Cc2ccc(OC)c(OCC=C(C)C)c2OCC=C(C)C)ccc1OCC=C(C)C", 61.5],
  ["COc1c(C/C=C/c2ccccc2)cc(C/C=C/c2ccccc2)c(OC)c1OC", 75.2],
  ["COc1cc(/C=C/Cc2ccc(OC)c(OCC=C(C)C)c2O)ccc1O", 64.2],
  ["COc1c(C/C=C/c2ccccc2)ccc(OCC=C(C)C)c1OCC=C(C)C", 64.5],
  ["COc1cc(/C=C/Cc2ccc(OC)c(OCC=C(C)C)c2O)ccc1OCC=C(C)C", 68.6],
  ["COc1ccc(C/C=C/c2ccccc2)c(OCC=C(C)C)c1OCC=C(C)C", 62.2]
]}

====

# Tested on: Human gammaherpesvirus 4
# ASSAY NOTES: TPA-induced EBV early antigen activation in Raji cells at 32 nmol relative to control
Rule: class 1 for EBV-EA activation not less than 10%, class 0 for anything less.

{"columns": ["SMILES RECORD", "LABEL CLASS"],
 "data": [
  ["COc1c(C/C=C/c2ccccc2)cc(C/C=C/c2ccccc2)c(O)c1OC", "class 1"],
  ["COc1ccc(C/C=C/c2ccccc2)c(O)c1OCC=C(C)C", "class 0"],
  ["COc1ccc(C/C=C/c2ccccc2)c(O)c1OC", "class 1"],
  ["COc1ccc(C/C=C/c2ccccc2)c(OC)c1OC", "class 1"],
  ["COc1cc(/C=C/C(=O)CC(=O)/C=C/c2ccc(O)c(OC)c2)ccc1O", "class 0"]
]}

====

# Tested on: Raji
# ASSAY NOTES: Survival of Raji cells at 32 nmol by trypan blue staining method
# Type: functional, Homo sapiens
In this section, each of the molecules is paired with its reported Survival.

{"columns": ["MOLECULE", "TGT", "Survival (%)"],
 "data": [
  ["COc1cccc(O)c1C/C=C/c1ccccc1", "Raji", 60],
  ["COc1c(C/C=C/c2ccccc2)ccc(O)c1C/C=C/c1ccccc1", "Raji", 60],
  ["COc1cccc(OCC=C(C)C)c1C/C=C/c1ccccc1", "Raji", 70],
  ["COc1c(C/C=C/c2ccccc2)ccc(OCC=C(C)C)c1OC", "Raji", 70],
  ["COc1ccc(C/C=C/c2ccccc2)c(OCC=C(C)C)c1", "Raji", 70],
  ["COc1cc(/C=C/Cc2ccc(O)c(O)c2OC)ccc1O", "Raji", 60],
  ["COc1cc(/C=C/Cc2ccc(OC)c(OCC=C(C)C)c2O)ccc1OCC=C(C)C", "Raji", 70],
  ["COc1cc(/C=C/Cc2ccc(OC)c(O)c2O)ccc1O", "Raji", 60],
  ["COc1cc(/C=C/Cc2ccc(OC)c(OCC=C(C)C)c2O)ccc1O", "Raji", 70],
  ["COc1c(C/C=C/c2ccccc2)ccc(O)c1O [HYDROXYOBUSTYRENE]", "Raji", 60],
  ["COc1cc(/C=C/C(=O)CC(=O)/C=C/c2ccc(O)c(OC)c2)ccc1O", "Raji", 60],
  ["COc1c(C/C=C/c2ccccc2)cc(C/C=C/c2ccccc2)c(OC)c1OC", "Raji", 60],
  ["COc1cc(O)ccc1C/C=C/c1ccccc1", "Raji", 60],
  ["COc1cc(/C=C/Cc2ccc(OC)c(OCC=C(C)C)c2OCC=C(C)C)ccc1OCC=C(C)C", "Raji", 70],
  ["COc1ccc(C/C=C/c2ccccc2)c(O)c1O", "Raji", 60],
  ["COc1ccc(C/C=C/c2ccccc2)c(O)c1OC", "Raji", 60],
  ["COc1c(C/C=C/c2ccccc2)cc(C/C=C/c2ccccc2)c(O)c1OC", "Raji", 60]
]}
